# Assay info: Microsomal stability assay, mouse liver microsomes
# Test context: 60 min
Assay endpoint: Microsomal Stability (mouse) % rem. 60 min

| Compound | Readout value |
| --- | --- |
| FC(F)Oc1cnc(N[C@H]2CC[C@@H](Oc3nc(N4CCOCC4)cc4ncccc34)CC2)nc1 | E (% remaining = 0-25%) |
| c1cnc2cc(N3CCOCC3)nc(O[C@H]3CC[C@@H](n4cnnn4)CC3)c2c1 [Compound 17l] | E (% remaining = 0-25%) |
| C[C@]1(n2ccnc2)CC[C@@H](Oc2nc(N3CCOCC3)cc3ncccc23)CC1 | E (% remaining = 0-25%) |
| O=C(N[C@H]1CC[C@@H](Oc2nc(N3CCOCC3)cc3ncccc23)CC1)c1ncc[nH]1 | E (% remaining = 0-25%) |
| FC(F)(F)c1cncn1[C@H]1CC[C@@H](Oc2nc(N3CCOCC3)cc3ncccc23)CC1 [Compound 17j] | E (% remaining = 0-25%) |
| Cc1nn([C@H]2CC[C@@H](Oc3nc(N4CCOCC4)cc4ncccc34)CC2)cc1C(F)(F)F [Compound 17g] | E (% remaining = 0-25%) |
| c1cnnc(N[C@H]2CC[C@@H](Oc3nc(N4CCOCC4)cc4ncccc34)CC2)c1 | E (% remaining = 0-25%) |
| c1cnc(N[C@H]2CC[C@H](Oc3nc(N4CCOCC4)cc4ncccc34)CC2)nc1 | F (% remaining = 25-50%) |

Input: What Microsomal Stability (mouse) % rem. 60 min value was documented for this compound, O=C(N[C@H]1CC[C@@H](Oc2nc(N3CCOCC3)cc3ncccc23)CC1)c1ccncc1 ?
Output: F (% remaining = 25-50%)

Input: What Microsomal Stability (mouse) % rem. 60 min value was documented for this compound, O=C(N[C@H]1CC[C@@H](Oc2nc(N3CCOCC3)cc3ncccc23)CC1)C1CC1 ?
Output: E (% remaining = 0-25%)
